- SYSTEM UNDER TEST: Arginase-2, mitochondrial (Homo sapiens) (UniProt P78540)
- Sequence (whole entry): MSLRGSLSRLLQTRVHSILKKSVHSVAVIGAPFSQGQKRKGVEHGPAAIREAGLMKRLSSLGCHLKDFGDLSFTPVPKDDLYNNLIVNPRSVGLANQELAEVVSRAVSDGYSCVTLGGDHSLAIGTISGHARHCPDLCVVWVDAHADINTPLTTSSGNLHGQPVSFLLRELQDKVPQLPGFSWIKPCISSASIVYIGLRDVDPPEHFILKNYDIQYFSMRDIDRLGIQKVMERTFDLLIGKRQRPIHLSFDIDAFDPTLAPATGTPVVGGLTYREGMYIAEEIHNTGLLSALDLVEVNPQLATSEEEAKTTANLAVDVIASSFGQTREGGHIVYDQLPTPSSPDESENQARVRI
- EXPERIMENTAL DETAILS: in vitro enzyme assay to detect the production of urea directly proportional to the activity of Arginase II; also: in the data most compounds retested in dose-response had high values
- Format: functional
- Set-up: scale not given: direction of the effect not stated beside the values
- MEASUREMENT SETUP: 33.3 µM
Reported Percent Effect values are given for each entry in this list.
Report only the number, with the unit % understood.

Past entries and their recorded results:
{"COMPOUND": "CC(C)S(=O)(=O)c1nnc(CCNC(=O)OC(C)(C)C)o1", "REPORTED METRIC": "Percent Effect", "MEASUREMENT": -9.33}
{"COMPOUND": "COc1ccc(Oc2cncc(C3CCCN3C(C)=O)n2)cc1 (stereo not given)", "REPORTED METRIC": "Percent Effect", "MEASUREMENT": 0.696}
{"COMPOUND": "CC(=O)N(Cc1ncc(C)o1)C1CCN(CCNC2CCCCC2)C1 (stereo not given)", "REPORTED METRIC": "Percent Effect", "MEASUREMENT": 0.744}
{"COMPOUND": "CCc1nccn1C1CCCN(C(=O)c2cc3nc(C)ccc3o2)C1 (stereo not given)", "REPORTED METRIC": "Percent Effect", "MEASUREMENT": -4.81}
{"COMPOUND": "Fc1ccc(CN2CCC(c3nccnc3-n3ccnc3)CC2)cc1", "REPORTED METRIC": "Percent Effect", "MEASUREMENT": -3.02}

input: # get_value(readout= Percent Effect, system= Arginase-2, mitochondrial (Homo sapiens) (UniProt P78540)) for O=C(Cn1ccnc1)N1C[C@@H]2CC[C@H](Oc3ccccc3)[C@@H]2C1
output: -1.16

input: # get_value(readout= Percent Effect, system= Arginase-2, mitochondrial (Homo sapiens) (UniProt P78540)) for CCCc1cc(=O)[nH]c2nnc(SCC(=O)NCc3ccc(C)cc3)n12
output: 13.6

###

- SYSTEM UNDER TEST: Arginase-2, mitochondrial (Homo sapiens) (UniProt P78540)
- EXPERIMENTAL DETAILS: in vitro enzyme assay to detect the production of urea directly proportional to the activity of Arginase II; also: in the data most compounds retested in dose-response had high values
- Assay type: functional
- Parameters: scale not given: direction of the effect not stated beside the values
- MEASUREMENT SETUP: 33.3 µM
REPORTED METRIC: Percent Effect (%)
Report only the number, with the unit % understood.

{"COMPOUND": "COc1ccc(C2CCCN2C(=O)NCCNc2ncccn2)cc1 (stereo unspecified)", "SYSTEM UNDER TEST": "Arginase-2, mitochondrial (Homo sapiens) (UniProt P78540)", "Percent Effect, %": 6.36}
{"COMPOUND": "CS(=O)(=O)Cc1cccc(C(=O)NCC2Cc3ccccc3O2)c1 (stereo unspecified)", "SYSTEM UNDER TEST": "Arginase-2, mitochondrial (Homo sapiens) (UniProt P78540)", "Percent Effect, %": 5.46}
{"COMPOUND": "COCCN1CC[C@@H](O)[C@@H]1Cc1ccccc1", "SYSTEM UNDER TEST": "Arginase-2, mitochondrial (Homo sapiens) (UniProt P78540)", "Percent Effect, %": -8.63}
{"COMPOUND": "Cc1cc(C(=O)N2Cc3ccccc3OC3(CCOCC3)C2)nc(N)n1", "SYSTEM UNDER TEST": "Arginase-2, mitochondrial (Homo sapiens) (UniProt P78540)", "Percent Effect, %": -4.87}
{"COMPOUND": "CN(C(=O)Cc1ccc2c(c1)OCCO2)C1CCCC1", "SYSTEM UNDER TEST": "Arginase-2, mitochondrial (Homo sapiens) (UniProt P78540)", "Percent Effect, %": -7.1}
{"COMPOUND": "Cc1cnn(C2CN(CC(=O)NCCc3ccccc3)C2)c1", "SYSTEM UNDER TEST": "Arginase-2, mitochondrial (Homo sapiens) (UniProt P78540)", "Percent Effect, %": -2.16}
{"COMPOUND": "O=C(c1ccc(Cl)c(Cl)c1)N1CCCC(n2cncn2)C1 (stereo unspecified)", "SYSTEM UNDER TEST": "Arginase-2, mitochondrial (Homo sapiens) (UniProt P78540)", "Percent Effect, %": 6.47}
{"COMPOUND": "O=C(Cc1ccccn1)N1CCN(CC2CC2)c2ncccc2C1", "SYSTEM UNDER TEST": "Arginase-2, mitochondrial (Homo sapiens) (UniProt P78540)", "Percent Effect, %": -0.699}

input: # get_value(readout= Percent Effect, system= Arginase-2, mitochondrial (Homo sapiens) (UniProt P78540)) for Cc1cnn(CC2CN(Cc3nc4ccccc4nc3C)CCO2)c1 (stereo unspecified)
output: -4

input: # get_value(readout= Percent Effect, system= Arginase-2, mitochondrial (Homo sapiens) (UniProt P78540)) for CN(C)S(=O)(=O)N1C[C@H](Oc2cccnc2)[C@H]2OCCC[C@H]21
output: -4.52

input: # get_value(readout= Percent Effect, system= Arginase-2, mitochondrial (Homo sapiens) (UniProt P78540)) for CC(NC(=O)N(C)Cc1ccsc1)c1ccc2c(c1)CCC(=O)N2 (stereo unspecified)
output: -3.06

input: # get_value(readout= Percent Effect, system= Arginase-2, mitochondrial (Homo sapiens) (UniProt P78540)) for Cc1ccccc1-n1ncc(C(=O)N2CCCC2c2cnn(C)c2)c1C (stereo unspecified)
output: -0.924

input: # get_value(readout= Percent Effect, system= Arginase-2, mitochondrial (Homo sapiens) (UniProt P78540)) for CCOCC1CN(C(=O)CS(C)(=O)=O)Cc2cnn(C)c21 (stereo unspecified)
output: -11.3

input: # get_value(readout= Percent Effect, system= Arginase-2, mitochondrial (Homo sapiens) (UniProt P78540)) for Cc1cc(F)ccc1OC1(C(=O)O)CCN(Cc2cccnc2N)CC1
output: -0.521

input: # get_value(readout= Percent Effect, system= Arginase-2, mitochondrial (Homo sapiens) (UniProt P78540)) for N#CCSCCCN1CCCN(C(=O)c2ccccc2)CC1
output: 3.19

###

Reported Percent Effect values are given for each entry in this list.
- SYSTEM UNDER TEST: Protein translocase subunit SecA (Escherichia coli (strain K12)) (UniProt P10408)
- Sequence (P10408 whole entry): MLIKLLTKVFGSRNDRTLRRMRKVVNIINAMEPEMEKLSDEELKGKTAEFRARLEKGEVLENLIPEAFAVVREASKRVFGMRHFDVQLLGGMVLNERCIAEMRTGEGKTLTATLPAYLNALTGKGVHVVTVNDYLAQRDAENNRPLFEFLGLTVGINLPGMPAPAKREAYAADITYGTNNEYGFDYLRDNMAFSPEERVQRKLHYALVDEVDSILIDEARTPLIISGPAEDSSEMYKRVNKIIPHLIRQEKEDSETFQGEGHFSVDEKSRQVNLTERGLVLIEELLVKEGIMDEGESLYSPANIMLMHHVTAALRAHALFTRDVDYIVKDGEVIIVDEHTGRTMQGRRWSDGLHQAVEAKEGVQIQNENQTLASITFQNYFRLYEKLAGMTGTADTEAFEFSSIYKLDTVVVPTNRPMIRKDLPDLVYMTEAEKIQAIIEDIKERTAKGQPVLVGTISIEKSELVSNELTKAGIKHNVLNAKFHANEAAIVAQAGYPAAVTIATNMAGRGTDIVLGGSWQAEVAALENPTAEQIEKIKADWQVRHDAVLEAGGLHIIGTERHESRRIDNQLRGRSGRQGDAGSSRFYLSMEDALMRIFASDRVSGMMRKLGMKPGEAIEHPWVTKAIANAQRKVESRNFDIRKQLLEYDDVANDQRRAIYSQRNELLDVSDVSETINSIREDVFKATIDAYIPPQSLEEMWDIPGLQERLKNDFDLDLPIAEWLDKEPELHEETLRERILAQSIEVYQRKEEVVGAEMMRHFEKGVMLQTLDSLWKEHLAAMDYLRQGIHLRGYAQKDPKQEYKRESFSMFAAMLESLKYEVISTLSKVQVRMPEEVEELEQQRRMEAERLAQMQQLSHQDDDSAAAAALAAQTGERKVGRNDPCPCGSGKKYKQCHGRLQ
- EXPERIMENTAL DETAILS: Assay to Identify E. coli SecA ATPase Inhibitors
- Assay type: functional
- Design: scale not given: direction of the effect not stated beside the values
- MEASUREMENT SETUP: 30 µM
Potency and affinity values are given separately.
Report only the number, with the unit % understood.

Past entries and their recorded results:
{"COMPOUND": "c1cc2n(n1)CC(CNCc1ccc(OCC3CC3)nc1)CN2 (stereo not drawn)", "MEASURE UNIT": "%", "Percent Effect": -1.23}
{"COMPOUND": "Cc1cnc(CNC(=O)NCc2cccnc2N(C)C)s1", "MEASURE UNIT": "%", "Percent Effect": -3.06}
{"COMPOUND": "COc1cccc(N2CCN(Cc3ncc[nH]3)CC2=O)c1", "MEASURE UNIT": "%", "Percent Effect": -0.114}

API: the following record is the query input.
input: What Percent Effect value was documented for this compound, O=C(CC1CCCO1)NCc1ccccc1Cn1cncn1 (stereo not drawn) ?
output: -2.25

###

- SYSTEM UNDER TEST: Tyrosyl-tRNA synthetase, putative (Trypanosoma cruzi (strain CL Brener))
- EXPERIMENTAL DETAILS: Trypanosoma cruzi tyrosyl tRNA synthetase (TcYRS) _High Tyrosine SOP; also: in the data most compounds retested in dose-response had high values
- Format: functional
- Set-up: scale not given: direction of the effect not stated beside the values
- MEASUREMENT SETUP: 30 µM
REPORTED METRIC: Percent Effect (%)
Report only the number, with the unit % understood.

Past entries and their recorded results:
{"MOLECULE": "CCn1c(Cn2cncn2)nnc1C1CCN(C(=O)CCSC)CC1", "MEASUREMENT": 6.45}
{"MOLECULE": "Cc1cc(C(=O)N2C[C@@H]3COC[C@]3(c3nnc(C4CC4)o3)C2)on1", "MEASUREMENT": -5.21}
{"MOLECULE": "c1nc(CCC2CCCN2)cc(N2CCCOCC2)n1 (centres undefined)", "MEASUREMENT": 3.23}

API: the following record is the query input.
input: What Percent Effect value was documented for this molecule, CC(C)Nc1nc2c(cc1C(=O)NCC1CC1)CCNCC2 ?
output: 7.29
